Biological target: human polyclonal IgG (human)
Assay: SPR (Biacore), His-tagged fusion protein captured on Ni-NTA chip, human IgG injected

| binder | koff [s⁻¹] |
| --- | --- |
| fusion protein PG1 (designed binder) AYRLILNGRTLRGETTTEAVDAATAERVFRQYANDNGVDGEWTYDDATRTFTVTERPEVIDASELTPAVTGGGGCADDDDDDHHHHHH | 0.000154 |
